# ASSAY: yeast display, Sf9 membrane polyspecificity reagent, FACS + sequencing; frameworks hold sequencing errors
OBSERVABLE: polyreactivity (PSR sort gate)

QVQLVESGGGLVQAGGSLRLSCAASGITFYGNAMGWYRQAPGKERELVAAISSSGGTTYYADSVKGRFTISRDNAKNTVYLQMNSLIPEDTAVYYCNALHPVVYYGTYFNLRRYDYWGQGTQVTVSS: low polyreactivity
QVQLVESGGGLVQAGGSLRLSCAASGRIFGVNAMGWYRQAPGKERELVAAIDWSDGSTYYADSVKGRFTISRDNAKNTVYLQMNSLKPEDTAVYYCATDYSYGDYYDDEFPSDDFDYWGQGTQVTVSS: low polyreactivity

* * *

# ASSAY: yeast display, Sf9 membrane polyspecificity reagent, FACS + sequencing; frameworks hold sequencing errors
OBSERVABLE: polyreactivity (PSR sort gate)

QVQLVESGGGLVQAGGSLRVSCAASGRTFLSYTMGWYRPAPGKERQLVARISASGGSTYYADSVKGRFTISRDNAKITVYLQMNSLKPEDTAVYYCARVPYYLYYVTRPYDYWGQGTLVTVSS: low polyreactivity
QVQLVESGGGLVQAGGSLRLSCAASGIIFTGNAMGWYRQAPGKERELVAAITSGDTTNYADSVKGRFTISRDNAKNTVYLQMNSLKPEDTAVYFCAIELQVRQAGDYWGQGTQVTVSS: low polyreactivity

* * *

# ASSAY: yeast display, Sf9 membrane polyspecificity reagent, FACS + sequencing; frameworks hold sequencing errors
OBSERVABLE: polyreactivity (PSR sort gate)

QVQLVESGGGLVQAGGSLSLICAASGRTFGPNTMGWYRQAPGKERELVAAITGSGGSTYYADSVKGRFTISRDNAKNTVYLQMNSLKPEDTAVYYCAKSVRYPASDYWGQGTQVTVSS: low polyreactivity
QVQLVESGGGLVQAGGSLRLSCAASGSTFEYNVMGWYRQAPGKERELVAAITSGASTNYADSVKGRFTISRDNAKNSVYLQMNSLKPEDTAVYYCAAGESGSFFIYYYWGQGTQVTVSS: low polyreactivity
QVQLVESGGGLGQAGGSLRLSCAASGSTFKFYAMGWYRHAPGKERELVATISWTGGSTYYADSVKGRFTISRDNAKNTVYLQTNSLKPEDTAVYYCANRKTSYPVIWYTVNGRHYYWGQGTQVTVSS: low polyreactivity

* * *

# ASSAY: yeast display, Sf9 membrane polyspecificity reagent, FACS + sequencing; frameworks hold sequencing errors
OBSERVABLE: polyreactivity (PSR sort gate)

Check out these entries, answers already filled in.
QVQLVESGGGLVQAGGSLRLSCAASGFTLRVNAMGWYRHPPGKERELVAAISDSGGDTYYADSVKGRFTISRDNAKNTVYLQMNSLKPEDTAVYYCAADDGSENDYWGQGTQVTVSS: low polyreactivity
QVQLVESGGGLVQAGGSLRLSCAASGSTFWYNAMGWYRQAPGTERELVATITNSGGSTYYADSVKGRFTISRDNAKNTVYLQMNSLKPEDTAVYYCATDVYSGALLKYDYWGQGTQVTVSS: low polyreactivity
QVQLVESGGGLVQAGGSLRLSCAASGSTFPSNAMGWYRQAPGKERELVAAIRGRGGSTYYADSVKGRFTISRDNAKNTVYLQMNSLKPEDTAVYYCAKKVRSYVRWEYDYWGQGTQVTVSS: low polyreactivity
QVQLVESGGGLVQAGGSLRLSCAASGRIFHGNAMGWYRQAPGKERELVAAISRSGSRTYYADSVKGRFTISRDNAKNTVYLQMNSLKPEDTAVYYCAAVTFSYQDYYWGQVTQVTVSS: high polyreactivity
QVQLVESGGGLVQAGGSLRLSCAASGIILRYYAMGWYRQAPGKEREMVAAISYSGGRTYYADSVKGRFTISRDNAKNTVYLQMNSLKPEDTAVYYCAADYGYRIIASYDYWGQGTQVTVSS: high polyreactivity
QVQLVESGGGLDQAGGSLRLSCAASGFIFNNYAMGSYRQAPGKERELVAAITWSGGGTYYADSVKGRFTISRDNAKNTVYLQMNSLKPEDTAVYYCADYYPAYRDEYWGQGTQVTVSS: high polyreactivity
QVQLVESGGGLVQAGGSLRLICAASGRTFAYNAMGWYRQAPGKERELVAAISYRGTTTYYADSVKGRFTISRDNAKNTVYLQMNSLKPEDTAVYYCNKVGTRFSAYSSGFVLSEYYYWGQGTQVTVSS: high polyreactivity
QVQLVESGGGLVQAGGSLRISCAASVSTFDINTMGWYRQAPGKEREFVAAITDSDDSTYYADSVKGRFTISRDNAKNTVYLQMNSLKPEDSAVYYCAADRSHAYYRKNRVDYWGQGTQVTVSS: low polyreactivity

Asked: Find the recorded polyreactivity (PSR sort gate) belonging to `QVQLVESGGGLVQAGGSLRLICAASGRILYGNVMGWYRQAPGKERELVAAIDSSGATTYYADSVKGRFTISRDNAKNTVYLQMNSLKPEDTAVYYCAAEVTSFSFGGDATEYYWGQGTQVTVSS` and report it.
Given back: low polyreactivity

Asked: Find the recorded polyreactivity (PSR sort gate) belonging to `QVQLVESGGGLVQAGGSLRLSCAASGSIFAYYAMGWYRQAPGKERELVAAISSSGGSTTYADSVKGRFTISRDNAKNTVYLQMNSLKPEDTAVYYCNAAWRRSRYYYWGQGTQVTVSS` and report it.
Given back: high polyreactivity

Asked: Find the recorded polyreactivity (PSR sort gate) belonging to `QVQLQESGGGLVQAGGSLRLSCAASGTISPLPAMGWYRQAPGKEREFVAGIDTGAITNYADSVKGRFTISRDNAKNTVYLQMNSLKPEDTAVYYCAVFQAAYDYYERYYTYWGQGTQVTVSS` and report it.
Given back: low polyreactivity

Asked: Find the recorded polyreactivity (PSR sort gate) belonging to `QVQLVESGGGLVQAGGSLRLSCAASGRTFRWYAMGWYRQAPGKETELVAAINPGGSTNYADSVKGRFTISRDNAKNTVYLQMNSLKPEDTAVYYCNAAGYDALTHNYYWGQCTQVTVSS` and report it.
Given back: low polyreactivity

Asked: Find the recorded polyreactivity (PSR sort gate) belonging to `QVQLVESGGGLVQAGGSLRLSCAASGSTFYPNAMGWYRQAPGKERELVAAITGGGSTTYADSVKGRFTISRDNAKNTVYLQMNSLKQEDTAVYYCNTDGPRYARPYDSWGQGTQVTVSS` and report it.
Given back: low polyreactivity

Asked: Find the recorded polyreactivity (PSR sort gate) belonging to `QVQLVESGGGLVQAGGSLRLICAASGSTCVDNAMGGYRPAPGKERELVADISSVGSTYYADYVKGRFTISRDNAKNTVYLQMNTLIPEDTAVYYCNRAGGYRTTFYSWGQGTQVTVSS` and report it.
Given back: high polyreactivity

All values here come from the nanobody polyreactivity screen of Harvey et al. (2022).
